Biological target: recombinant human c-Met/HGF receptor (Homo sapiens)
Construct: His tag (pBlueBacHis2A vector); made in house; host or cells: Hi-5 cells (Trichoplusia ni), baculovirus
Sequence (P08581 1078-1337): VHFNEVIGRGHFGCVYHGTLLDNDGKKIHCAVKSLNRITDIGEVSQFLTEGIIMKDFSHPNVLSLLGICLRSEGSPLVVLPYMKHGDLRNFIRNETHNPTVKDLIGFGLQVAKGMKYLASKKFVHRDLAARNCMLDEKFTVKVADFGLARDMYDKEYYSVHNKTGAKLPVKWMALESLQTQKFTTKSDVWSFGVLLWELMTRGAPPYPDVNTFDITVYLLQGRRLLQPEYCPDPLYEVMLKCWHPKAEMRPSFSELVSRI
Assay: In vitro receptor tyrosine kinase assay (DELFIA), c-Met/HGF receptor
Type: biochemical
Conditions: read-out: CMET IC50
pIC50: −log10 of the molar value.
Record form. Attribute: pIC50. Fill in for each entry.

Q: For `CCn1ccnc1-c1cc2nccc(Oc3ccc(NC(=O)N4CCN(c5ccccc5)C4=O)cc3F)c2s1` , what is its reported pIC50?
Result: > 7.30

Q: Any idea what pIC50 was measured for CN(c1ccc(NC(=O)C2CCN(c3ccccc3)C2=O)cc1F)c1ccnc2cc(-c3cn(C)cn3)sc12 (stereo not shown) ?
Result: 6.60 to 7.30

Q: Entry under review: `COCCNCc1ccc(-c2cc3nccc(Oc4ccc(NC(=O)N5CCN(c6ccccc6)C5=O)cc4F)c3s2)cc1` . Reported pIC50?
Result: > 7.30

Q: What value of pIC50 has been reported for the following compound? `COc1ccccc1NC(=O)CC(=O)Nc1ccc(Oc2ccnc3cc(-c4cn(C(C)C)cn4)sc23)c(F)c1`
Result: > 7.30

###

Biological target: VEGF receptor KDR (Homo sapiens, UniProt P35968)
Construct: made in house; host or cells: Sf9 cells (Spodoptera frugiperda), baculovirus
Sequence (P35968 806-1356): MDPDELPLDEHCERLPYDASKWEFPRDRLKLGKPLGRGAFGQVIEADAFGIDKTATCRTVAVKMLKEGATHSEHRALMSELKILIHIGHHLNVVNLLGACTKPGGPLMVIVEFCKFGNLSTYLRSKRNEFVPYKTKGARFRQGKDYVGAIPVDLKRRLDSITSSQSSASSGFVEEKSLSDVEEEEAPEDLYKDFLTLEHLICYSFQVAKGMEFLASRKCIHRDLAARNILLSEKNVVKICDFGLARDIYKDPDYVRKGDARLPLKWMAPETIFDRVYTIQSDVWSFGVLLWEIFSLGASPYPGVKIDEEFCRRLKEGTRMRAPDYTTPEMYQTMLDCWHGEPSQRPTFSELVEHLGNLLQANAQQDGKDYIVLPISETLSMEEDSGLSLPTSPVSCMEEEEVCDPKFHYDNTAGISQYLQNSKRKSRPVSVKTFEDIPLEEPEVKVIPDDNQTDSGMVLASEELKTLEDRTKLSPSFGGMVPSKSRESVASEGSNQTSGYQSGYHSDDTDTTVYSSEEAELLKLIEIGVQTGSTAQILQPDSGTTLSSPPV
Experiment: In vitro receptor tyrosine kinase assay (DELFIA), VEGF receptor KDR
Format: biochemical
Conditions: read-out: VEGFR IC50
MEASURED METRIC: IC50

Q: Query: IC50; subject: `CN(C)CC/C=C\c1cc2nccc(Oc3ccc(NC(=O)CC(=O)N(C)c4ccccc4)cc3F)c2s1`
Result: 50 to 250 nM

Q: Quick one: IC50 of `CCCn1cnc(-c2cc3nccc(Oc4ccc(NC(=O)CC(=O)Nc5ccc(F)cc5)cc4F)c3s2)c1` ?
Result: < 50 nM

Q: Look at this compound and give its reported IC50. `CN1CCN(C(=O)CC(=O)Nc2ccc(Oc3ccnc4cc(-c5cn(C)cn5)sc34)c(F)c2)c2ccccc21`
Result: < 50 nM

Q: Look up IC50 for this compound: Cn1cnc(-c2cc3nccc(Oc4ccc(NC(=O)C5CCN(c6ccccc6)C5=O)cc4F)c3s2)c1 (stereo not shown)
Result: < 50 nM

###

Target: VEGF receptor KDR (Homo sapiens)
Construct: made in house; host or cells: Sf9 cells (Spodoptera frugiperda), baculovirus
Test: In vitro receptor tyrosine kinase assay (DELFIA), VEGF receptor KDR
Type: biochemical
Conditions: read-out: VEGFR IC50
Text: In the case of VEGF receptor KDR a 1.6-kb cDNA corresponding to the catalytic domain of VEGFR2 or KDR (Genbank accession number AF035121 amino acid 806 to 1356) was cloned into the Pst I site of the pDEST20 Gateway vector (Invitrogen) for the production of a GST-tagged version of that enzyme. The GST-VEGFR2806-1356 protein was expressed in […] (Spodoptera frugiperda) upon infection with recombinant baculovirus construct. […]
Could you please report measured IC50 for the items listed next?

Q: Item: CCn1cnc(-c2cc3nccc(Oc4ccc(NC(=O)CC(Nc5ccccc5)C(F)(F)F)cc4F)c3s2)c1 (stereo not shown) Test system: VEGF receptor KDR (Homo sapiens) Read-out: IC50 Value: ?
Result: 50 to 250 nM

Q: Please state recorded IC50 (tested on VEGF receptor KDR (Homo sapiens)) of `COCn1cnc(-c2cc3nccc(Oc4ccc(NC(=O)CC(=O)Nc5ccccc5OC)cc4F)c3s2)c1`
Result: < 50 nM

Q: Find the measured IC50: item `CN1CCN(Cc2ccc(-c3cc4ncnc(Oc5ccc(NC(=O)CC(=O)Nc6ccccc6)cc5F)c4s3)cc2)CC1` , target or system VEGF receptor KDR (Homo sapiens).
Result: < 50 nM

Q: Notebook: pull reported IC50 for VEGF receptor KDR (Homo sapiens), entry `CN(C)CCn1cnc(-c2cc3nccc(Oc4ccc(NC(=O)C5(C(=O)Nc6ccccc6)CC5)cc4F)c3s2)c1`
Result: < 50 nM

Q: Param readout= IC50; system= VEGF receptor KDR (Homo sapiens); entry= `CNC(=O)N1CCN(Cc2ccc(-c3cc4nccc(Oc5ccc(NC(=O)N6CCN(c7ccccc7)C6=O)cc5F)c4s3)cc2)CC1` ; returns value.
Result: < 50 nM

Q: Look up IC50 with VEGF receptor KDR (Homo sapiens) for this compound: `CC(C)N(C(=O)CC(=O)Nc1ccc(Oc2ccnc3cc(C4=CCN(C)CC4)sc23)c(F)c1)c1ccccc1`
Result: > 500 nM

Q: Hello, I am looking for reported IC50 with VEGF receptor KDR (Homo sapiens) for `COc1ccccc1CCNC(=O)C(=O)Nc1ccc(Oc2ccnc3cc(-c4ccc(OCCN5CCOCC5)c(OC)c4)sc23)c(F)c1` . Could you help?
Result: > 500 nM

Q: Record lookup: for VEGF receptor KDR (Homo sapiens), what IC50 belongs to `Cn1cnc(-c2cc3nccc(Oc4ccc(NC(=O)N5CCN(N6CCCCC6)C5=O)cc4F)c3s2)c1` ?
Result: 50 to 250 nM

Q: Item: `CCn1cnc(-c2cc3nccc(Oc4ccc(NC(=O)N5CCN(c6ccccc6F)C5=O)cc4F)c3s2)c1` Test system: VEGF receptor KDR (Homo sapiens) Read-out: IC50 Value: ?
Result: < 50 nM

Q: // lookup IC50 | system=VEGF receptor KDR (Homo sapiens) | key= `CC(C)n1cnc(-c2cc3nccc(Oc4ccc(NC(=O)CC(=O)Nc5nccs5)cc4F)c3s2)c1`
Result: < 50 nM

Q: VEGF receptor KDR (Homo sapiens) / IC50 / `Cn1ccnc1-c1cc2nccc(Oc3ccc(NC(=O)N4CCN(c5ccccc5)C4=O)cc3F)c2s1` : value?
Result: < 50 nM

Q: Provide the documented IC50 with VEGF receptor KDR (Homo sapiens) as the system for `O=C(Nc1ccc(Oc2ccnc3cc(-c4ccc(CN5CCNCC5)cc4)sc23)c(F)c1)N1CCN(c2ccccc2)C1=O`
Result: < 50 nM

Q: Recorded IC50 for `COc1ccccc1NC(=O)CC(=O)Nc1ccc(Oc2ccnc3cc(-c4cn(C)cn4)sc23)c(F)c1` with VEGF receptor KDR (Homo sapiens), please?
Result: < 50 nM

Q: Form: Entry = `CN1CCN(Cc2ccc(-c3cc4nccc(Oc5ccc(NC(=O)CC(=O)N(C)c6ccccc6)cc5F)c4s3)cc2)CC1` | System = VEGF receptor KDR (Homo sapiens) | IC50 = ____
Result: < 50 nM

Q: Give the reported IC50 for CC(C(=O)Nc1ccccc1)C(=O)Nc1ccc(Oc2ccnc3cc(-c4nccn4C)sc23)c(F)c1 (stereo not shown) [drawing 286] (system: VEGF receptor KDR (Homo sapiens)).
Result: < 50 nM

Q: Identify the measured IC50 of `CN1CCN(Cc2ccc(-c3cc4nccc(Oc5ccc(NC(=O)C6(C(=O)Nc7ccc(F)cc7)CC6)cc5F)c4s3)cc2)CC1` for VEGF receptor KDR (Homo sapiens).
Result: < 50 nM

###

Consider the following compounds; for each one, report its pIC50.
Molecular target: VEGF receptor KDR (Homo sapiens, UniProt P35968)
Construct: made in house; host or cells: Sf9 cells (Spodoptera frugiperda), baculovirus
Experiment: In vitro receptor tyrosine kinase assay (DELFIA), VEGF receptor KDR
Type: biochemical
Conditions: read-out: VEGFR IC50
pIC50: −log10 of the molar value.

Q: State its pIC50 on VEGF receptor KDR (Homo sapiens, UniProt P35968): `COc1ccccc1NC(=O)CC(=O)Nc1ccc(Oc2ccnc3cc(-c4c[nH]cn4)sc23)c(F)c1`
Result: 6.60 to 7.30

Q: # returns recorded pIC50 (system: VEGF receptor KDR (Homo sapiens, UniProt P35968)) for `COc1ccccc1NC(=O)CC(=O)Nc1ccc(Oc2ccnc3cc(-c4ccc(OCCN5CCOCC5)cc4)sc23)c(F)c1`
Result: > 7.30

Q: Form: Entry = `O=C(CC(=O)Nc1ccccc1F)Nc1ccc(Oc2ccnc3cc(C#CCN4CCOCC4)sc23)c(F)c1` | System = VEGF receptor KDR (Homo sapiens, UniProt P35968) | pIC50 = ____
Result: 6.30 to 6.60

Q: State its pIC50 on VEGF receptor KDR (Homo sapiens, UniProt P35968): COc1ccccc1NC(=O)CC(Nc1ccc(Oc2ccnc3cc(-c4cn(C)cn4)sc23)c(F)c1)C(F)(F)F (centres unmarked)
Result: > 7.30

Q: Lookup: pIC50 / VEGF receptor KDR (Homo sapiens, UniProt P35968) / CN1CCN(CCN(C)Cc2ccc(-c3cc4nccc(Oc5ccc(NC(=O)C6CCN(c7ccccc7)C6=O)cc5F)c4s3)cc2)CC1 (centres unmarked)
Result: > 7.30

Q: Lab note: need pIC50 for `O=C(Nc1ccc(Oc2ccnc3cc(-c4cn(CCCN5CCCC5)cn4)sc23)c(F)c1)N1CCN(c2ccc(F)cc2)C1=O` on VEGF receptor KDR (Homo sapiens, UniProt P35968), anyone have it?
Result: > 7.30

Q: // fetch VEGF receptor KDR (Homo sapiens, UniProt P35968) pIC50 for `CN(C(=O)CC(=O)Nc1ccc(Oc2ccnc3cc(-c4cn(C)cn4)sc23)c(F)c1)c1ccccc1F`
Result: > 7.30

Q: Give pIC50 (VEGF receptor KDR (Homo sapiens, UniProt P35968)) of the following compound: `CCn1cnc(-c2cc3nccc(Oc4ccc(NC(=O)CC(=O)N(C)c5ccccc5)cc4F)c3s2)c1`
Result: > 7.30

Q: Hi! What's the reported pIC50 for `Cn1cnc(-c2cc3nccc(Oc4ccc(NC(=O)N5CCN(c6ccc(F)cc6)C5=O)cc4F)c3s2)c1` on VEGF receptor KDR (Homo sapiens, UniProt P35968)?
Result: > 7.30

Q: Under VEGF receptor KDR (Homo sapiens, UniProt P35968): pIC50 value of `Cn1cnc(-c2cc3nccc(Nc4ccc(NC(=O)C5(C(=O)Nc6ccc(F)cc6)CC5)cc4F)c3s2)c1` ?
Result: > 7.30

Q: Query pIC50 on VEGF receptor KDR (Homo sapiens, UniProt P35968) for `Cn1cnc(-c2cc3nccc(Oc4ccc(NC(=O)C5(C(=O)Nc6ccccc6F)CC5)cc4F)c3s2)c1`
Result: > 7.30

Q: # value lookup — system VEGF receptor KDR (Homo sapiens, UniProt P35968), readout pIC50, item `COCCNCc1ccc(-c2cc3nccc(Oc4ccc(NC(=O)N5CCN(c6ccc(F)cc6)C5=O)cc4F)c3s2)cc1`
Result: > 7.30

Q: Quick check: pIC50 on VEGF receptor KDR (Homo sapiens, UniProt P35968), item `CN(C)CC#Cc1cc2nccc(Oc3ccc(NC(=O)CC(=O)Nc4ccccc4F)cc3F)c2s1` ?
Result: 6.60 to 7.30

Q: Request: pIC50, test system VEGF receptor KDR (Homo sapiens, UniProt P35968), entry `Cn1cnc(-c2cc3nccc(Oc4ccc(NC(=O)N5CCN(c6ccccc6)C5=S)cc4F)c3s2)c1`
Result: < 6.30

Q: Any idea what pIC50 came out for `COc1ccccc1NC(=O)CC(=O)Nc1ccc(Oc2ccnc3cc(C4=CCCN(C)C4)sc23)c(F)c1` on VEGF receptor KDR (Homo sapiens, UniProt P35968)?
Result: 6.30 to 6.60

Q: Query pIC50 on VEGF receptor KDR (Homo sapiens, UniProt P35968) for CN(c1ccc(NC(=O)C2CCN(c3ccccc3)C2=O)cc1F)c1ccnc2cc(-c3cn(C)cn3)sc12 (centres unmarked)
Result: < 6.30

Q: Form field: pIC50 recorded for `CNCCn1cnc(-c2cc3nccc(Oc4ccc(NC(=O)CC(=O)Nc5ccccc5OC)cc4F)c3s2)c1` with VEGF receptor KDR (Homo sapiens, UniProt P35968) (enter value)
Result: > 7.30
